Source: ChEMBL document CHEMBL1140576

Assay target: Human immunodeficiency virus type 1 integrase (Human immunodeficiency virus 1, UniProt Q7ZJM1)
Sequence (Q7ZJM1 whole entry): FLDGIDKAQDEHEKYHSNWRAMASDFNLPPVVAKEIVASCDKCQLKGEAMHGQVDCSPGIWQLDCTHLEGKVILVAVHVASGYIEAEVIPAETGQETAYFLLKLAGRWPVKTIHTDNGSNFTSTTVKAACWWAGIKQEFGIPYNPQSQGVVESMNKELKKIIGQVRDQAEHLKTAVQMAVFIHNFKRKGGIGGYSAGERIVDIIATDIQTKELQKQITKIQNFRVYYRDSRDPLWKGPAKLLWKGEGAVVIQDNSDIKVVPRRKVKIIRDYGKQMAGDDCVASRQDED
Method summary: Inhibition of HIV1 integrase 3'-end processing activity
Experimental endpoint: IC50

Entry smiles: Cc1cc(C)nc(SCc2nnc(SCC(=O)NNC(=O)c3ccccc3O)n2C)n1
IC50: > 100 µM

Entry smiles: O=C(CSc1nnc(-c2ccc(Cl)cc2)n1-c1ccccc1)N/N=C/c1ccccc1C(=O)O
IC50: > 100 µM

[in] Output IC50 of O=C(CSc1nnc(-c2ccncc2)n1-c1ccccc1)N/N=C/c1ccccc1O
[out] > 100 µM
